Data credit: paper PMC7803741

Molecular target: T1, clathrin adaptor protein AP2 (AP2 μ1 subunit) (rat, UniProt P84092 158-435)
T1 construct: AP2 μ1 subunit as printed, rat, UniProt P84092; the limits rest on the primer list; also called AP2 WT; source: E. coli BL21 (DE3), purified (nickel-NTA, size exclusion)
T1 sequence (looked up): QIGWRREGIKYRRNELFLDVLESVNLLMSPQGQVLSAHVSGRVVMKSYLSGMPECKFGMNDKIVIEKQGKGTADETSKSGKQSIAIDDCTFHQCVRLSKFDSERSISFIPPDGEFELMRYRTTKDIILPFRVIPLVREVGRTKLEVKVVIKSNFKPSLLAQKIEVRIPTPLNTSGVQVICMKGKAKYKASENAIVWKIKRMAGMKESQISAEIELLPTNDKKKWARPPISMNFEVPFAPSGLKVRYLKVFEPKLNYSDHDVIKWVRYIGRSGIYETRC
Test: ITC; VP-ITC at 25 °C; 50 mM Tris pH 7.8, 100 mM NaCl, 1 mM EDTA, 1 mM DTT; γ2 subunit protein or peptide (100-200 μM) injected into GABARAP, GABARAPL1 or AP2 (10-20 μM) in the cell; one-site binding model
Settings: both partners purified
Value kind: pKd
Numbers only, as −log10 of the molar value.

Binder	Value kind	Reading
ERDEEYGYRCLDGKDCAS (peptide, UniProt P22723-2 398-415, looked up, source: E. coli BL21 (DE3), purified (nickel-NTA, size exclusion)) [GABAA receptor γ2-GIM E406R]	pKd	6.16
ERDEEEGYECLDGKDCAS (peptide, UniProt P22723-2 398-415, looked up, source: E. coli BL21 (DE3), purified (nickel-NTA, size exclusion)) [GABAA receptor γ2-GIM Y403E]	pKd	5.61

Continue with the binder presented below.
## Task Which value of pKd has been reported for ERDETYGYECLDGKDCAS (peptide, UniProt P22723-2 398-415, looked up, source: E. coli BL21 (DE3), purified (nickel-NTA, size exclusion)) [GABAA receptor γ2-GIM E402T] in the records?
## Result 6.25
